Assay: pH-solubility profile and solubility in simulated intestinal media
Type: physicochemical
Conditions: FaSSIF, pH 6.5, fassif, thermodynamic from solid, FaSSIF pH = 6.5, room temperature
Readout Kind: solubility at 48 h (µg/mL)
Give just the number in µg/mL; leave the unit off.

Problem: Note solubility at 48 h for the compound shown: COC(=O)N[C@H](C(=O)N1CC2(CC2)C[C@H]1c1ncc(-c2ccc3c(c2)C(F)(F)c2cc(-c4ccc5nc([C@@H]6[C@H]7CC[C@H](C7)N6C(=O)[C@@H](NC(=O)OC)C(C)C)[nH]c5c4)ccc2-3)[nH]1)C(C)C [Ledipasvir amorphous free base]
Solution: 25

====

Assay: PK of sofosbuvir alone or with Compound E (and ledipasvir)
Format: in vivo
Details: human, in vivo, po, 400 mg, SOF + Compound E (500 mg QD), fed; n = 18; mean (% CV)
Readout Kind: Cmax (ng/mL)
Give just the number in ng/mL; leave the unit off.

Problem: Note Cmax for the compound shown: "CC(C)OC(=O)[C@H](C)N[P@](=O)(OC[C@H]1O[C@@H](n2ccc(=O)[nH]c2=O)[C@](C)(F)[C@@H]1O)Oc1ccccc1"
Solution: 587

====

Experiment: pH-solubility profile and solubility in simulated intestinal media
Type: physicochemical
Conditions: pH-adjusted aqueous solution, pH 3.1, aqueous buffer, thermodynamic from solid, Aqueous, pH 3.1 (HCl), room temperature
Readout Kind: solubility at 48 h (µg/mL)
Give just the number in µg/mL; leave the unit off.

Problem: Note solubility at 48 h for the compound shown: COC(=O)N[C@H](C(=O)N1CC2(CC2)C[C@H]1c1ncc(-c2ccc3c(c2)C(F)(F)c2cc(-c4ccc5nc([C@@H]6[C@H]7CC[C@H](C7)N6C(=O)[C@@H](NC(=O)OC)C(C)C)[nH]c5c4)ccc2-3)[nH]1)C(C)C [Ledipasvir amorphous free base]
Solution: 13.2

====

Assay: Aqueous solubility with 0.1% w/w surfactants and polymers; dissolution behavior of forms
Type: physicochemical
Conditions: aqueous citrate buffer with excipient, pH 5, aqueous with cosolvent or surfactant or cyclodextrin, thermodynamic from solid, 0.1% w/w Sodium lauryl sulfate, pH 5
Readout Kind: solubility (µg/mL)
Give just the number in µg/mL; leave the unit off.

Problem: Note solubility for the compound shown: COC(=O)N[C@H](C(=O)N1CC2(CC2)C[C@H]1c1ncc(-c2ccc3c(c2)C(F)(F)c2cc(-c4ccc5nc([C@@H]6[C@H]7CC[C@H](C7)N6C(=O)[C@@H](NC(=O)OC)C(C)C)[nH]c5c4)ccc2-3)[nH]1)C(C)C [Ledipasvir amorphous free base]
Solution: 243

====

Assay: Pharmacokinetics of sofosbuvir and ledipasvir alone or in combination
Assay type: in vivo
Conditions: po; plasma analyte; Ledipasvir alone; n = 17; mean (% CV)
Readout Kind: Cmax (µg/mL)
Give just the number in µg/mL; leave the unit off.

Problem: Note Cmax for the molecule shown: "COC(=O)N[C@H](C(=O)N1CC2(CC2)C[C@H]1c1ncc(-c2ccc3c(c2)C(F)(F)c2cc(-c4ccc5nc([C@@H]6[C@H]7CC[C@H](C7)N6C(=O)[C@@H](NC(=O)OC)C(C)C)[nH]c5c4)ccc2-3)[nH]1)C(C)C"
Solution: 0.375

====

Experiment: PK of sofosbuvir alone or with Compound E (and ledipasvir)
Type: in vivo
Details: human, in vivo, SOF + Compound E + ledipasvir; n = 18; mean (% CV)
Readout Kind: Cmax (ng/mL)
Give just the number in ng/mL; leave the unit off.

Problem: Note Cmax for the compound shown: "CC(C)OC(=O)[C@H](C)N[P@](=O)(OC[C@H]1O[C@@H](n2ccc(=O)[nH]c2=O)[C@](C)(F)[C@@H]1O)Oc1ccccc1"
Solution: 1260

The measured values listed here are drawn from patent US10039779B2.
